src = the supplement of paper PMC10567573

B1: CLCN6 (parent)
chain: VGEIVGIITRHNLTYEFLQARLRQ

- Variants of: B1
- procedureDetails: protein stability index of a GFP-peptide fusion (GPS, HEK-293T) (PSI 1-6); higher = more stable;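 also: lentivirally expressed fusions sorted by FACS into six bins by GFP to DsRed ratio, PSI derived from sequencing read proportions per bin multiplied by bin number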
- experimentalConditions: c terminus: a fixed tail appended
metricName: protein stability index
The response must contain the number and no unit.

Examples with answers:
sequenceVariant	protein stability index
V1R	1.58
G2E	1.75
G2W	3.19
I4L	2.59
R21Y	1.86
Y15A	2.07
Y15Q	2.38
L13E	2.18

Report measured protein stability index; entry is `L22K`
1.93

Return value of protein stability index for input `L13Q` , no commentary.
1.69

Could you please provide reported protein stability index for `E16Q` ? Thanks!
1.93

Output measured protein stability index for this item: `I4M`
2.33

Give the reported value of protein stability index for this record: `V1W`
2.47

Annotate the variant `R10L` with its measured protein stability index.
4.12

Return protein stability index for the following variant: `G2L`
2.48

Give protein stability index for the following variant: `H11N`
4.18

Identify protein stability index associated with the variant `E3R`
2.51

Report measured protein stability index; entry is `G6H`
2.89

Determine from records and report protein stability index for `I4F`
1.52

Identify measured protein stability index associated with `N12G`
5.11

Identify measured protein stability index corresponding to `L13W`
3.73

Provide one value: measured protein stability index of `F17I`
2.02
